Each entry below carries its reported pIC50.
- tested_target: UniProt P04150
- Sequence (P04150 1-777): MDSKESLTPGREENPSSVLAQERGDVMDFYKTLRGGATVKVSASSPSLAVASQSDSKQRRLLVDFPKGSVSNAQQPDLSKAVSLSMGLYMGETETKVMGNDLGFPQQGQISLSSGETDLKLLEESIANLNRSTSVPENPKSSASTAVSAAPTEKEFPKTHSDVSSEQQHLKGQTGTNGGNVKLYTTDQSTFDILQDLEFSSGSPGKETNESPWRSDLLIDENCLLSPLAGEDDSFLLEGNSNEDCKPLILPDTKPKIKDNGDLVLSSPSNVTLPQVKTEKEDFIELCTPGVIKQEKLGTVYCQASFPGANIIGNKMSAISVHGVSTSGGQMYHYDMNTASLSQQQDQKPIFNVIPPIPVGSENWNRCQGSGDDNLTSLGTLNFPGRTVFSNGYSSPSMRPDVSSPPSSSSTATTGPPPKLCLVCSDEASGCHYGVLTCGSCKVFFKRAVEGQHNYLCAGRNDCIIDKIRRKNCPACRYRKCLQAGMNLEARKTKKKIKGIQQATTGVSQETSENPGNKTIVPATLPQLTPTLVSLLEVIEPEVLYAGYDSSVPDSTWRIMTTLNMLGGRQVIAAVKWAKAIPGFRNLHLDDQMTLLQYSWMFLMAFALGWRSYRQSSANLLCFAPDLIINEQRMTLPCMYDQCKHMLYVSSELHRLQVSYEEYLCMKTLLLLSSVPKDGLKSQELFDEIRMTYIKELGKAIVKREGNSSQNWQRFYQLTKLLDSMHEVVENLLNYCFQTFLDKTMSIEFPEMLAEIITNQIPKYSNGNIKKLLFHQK
pIC50: −log10 of the molar value.

Here's what some known entries look like.
In [3]: df
Out[3]:
                                   compound   tested_target      observed
0  CC[C@@]1(O)CC[C@@]2(CC)c3ccc(C(=O)Nc4cccnc4C)cc3CCC[C@H]2C1  UniProt P04150        > 7.00
1  CCC[C@@]1(O)CC[C@@]2(CC)c3ccc(C(=O)Nc4cccnc4C)cc3OCC[C@H]2C1 (single isomer, unassigned)  UniProt P04150        > 7.00
2  Cc1ncccc1NC(=O)c1ccc2c(c1)CCC[C@H]1C[C@@H](O)CC[C@@]21Cc1ccccc1 (racemic)  UniProt P04150  6.00 to 7.00
3  C#C[C@]1(O)CC[C@@]2(Cc3ccccc3)c3ccc(C(=O)Nc4cccnc4C)cc3CCC[C@H]2C1 (racemic)  UniProt P04150        > 7.00
4  Cc1ncccc1NC(=O)c1ccc2c(c1)CCC[C@H]1C[C@H](O)CC[C@@]21Cc1ccccc1 (racemic)  UniProt P04150        > 7.00

Then there is this compound:
Sample CC[C@@]1(O)CC[C@@]2(Cc3ccccc3)c3ccc(C(=O)Nc4cccnc4C)cc3C(=O)CC[C@H]2C1 (single isomer, unassigned) — what was its pIC50? > 7.00

###

- tested_target: Glucocorticoid Receptor (GR) (Homo sapiens, UniProt P04150)
- Sequence (P04150 1-777): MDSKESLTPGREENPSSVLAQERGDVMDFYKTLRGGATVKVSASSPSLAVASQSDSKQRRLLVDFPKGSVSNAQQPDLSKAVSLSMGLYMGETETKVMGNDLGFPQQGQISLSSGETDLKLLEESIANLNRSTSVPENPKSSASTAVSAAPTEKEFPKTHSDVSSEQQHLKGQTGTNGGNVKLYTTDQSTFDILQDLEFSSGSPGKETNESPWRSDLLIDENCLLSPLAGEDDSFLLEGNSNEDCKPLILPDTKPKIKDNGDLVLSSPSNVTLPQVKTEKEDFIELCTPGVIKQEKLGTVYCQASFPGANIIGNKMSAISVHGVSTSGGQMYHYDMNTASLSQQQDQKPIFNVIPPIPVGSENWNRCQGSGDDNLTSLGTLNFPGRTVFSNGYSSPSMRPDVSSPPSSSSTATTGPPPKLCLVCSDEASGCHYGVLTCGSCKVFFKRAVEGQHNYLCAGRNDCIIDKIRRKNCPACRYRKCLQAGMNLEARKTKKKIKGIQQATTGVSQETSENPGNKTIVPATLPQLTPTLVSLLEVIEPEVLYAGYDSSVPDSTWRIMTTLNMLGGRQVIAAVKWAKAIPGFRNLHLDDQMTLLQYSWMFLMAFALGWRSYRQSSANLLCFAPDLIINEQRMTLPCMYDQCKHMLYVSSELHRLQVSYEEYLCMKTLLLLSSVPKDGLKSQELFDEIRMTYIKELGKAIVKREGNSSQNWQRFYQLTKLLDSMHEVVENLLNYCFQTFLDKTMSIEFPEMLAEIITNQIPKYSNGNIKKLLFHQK
recorded_metric: IC50

Sample CCOC[C@@]1(O)CC[C@@]2(Cc3ccccc3)c3ccc(C(=O)Nc4cccnc4C)cc3CCC[C@H]2C1 — what was its IC50? < 100 nM

Sample Cc1ncccc1NC(=O)c1ccc2c(c1)CCC[C@H]1C[C@@](O)(c3ccccc3)[C@H](O)C[C@@]21Cc1ccccc1 — what was its IC50? 100 to 1000 nM

Sample CC[C@@]1(O)CC[C@]2(Cc3ccccc3)c3nn(C)cc3CCC[C@@H]2C1.CC[C@]1(O)CC[C@@]2(Cc3ccccc3)c3nn(C)cc3CCC[C@H]2C1 — what was its IC50? > 10000 nM

Sample CC[C@@]12CC[C@](O)(CC(C)C)C[C@@H]1CCCc1cc(C(=O)Nc3cccnc3C)ccc12 — what was its IC50? < 100 nM

###

Listed here: compounds with reported IC50 for Glucocorticoid Receptor (GR) (Homo sapiens, UniProt P04150).

>>> df
                                   compound  recorded_metric  observed
0  Cc1ncccc1NC(=O)c1ccc2c(c1)CCC[C@H]1C[C@@](O)(CC(C)C)CC[C@@]21CC(F)(F)F (racemic) [Example 63]             IC50  < 100 nM

Sample CCC[C@@]1(O)CC[C@@]2(CC(F)(F)F)c3ccc(C(=O)Nc4cccnc4C)cc3CCC[C@H]2C1 (racemic) [Example 52] — what was its IC50? < 100 nM

Sample CCC[C@@]1(O)CC[C@@]2(CC)c3ccc(C(=O)Nc4cccnc4C)cc3C=CC[C@H]2C1 (racemic) [Example 128] — what was its IC50? < 100 nM

Sample CC[C@@]1(O)CC[C@@]2(Cc3ccccc3)c3nn(C)cc3CCC[C@H]2C1.CC[C@]1(O)CC[C@]2(Cc3ccccc3)c3nn(C)cc3CCC[C@@H]2C1 [Example 40] — what was its IC50? > 10000 nM

Sample CC[C@@]1(O)CC[C@@]2(Cc3ccccc3)c3ccc(C(=O)N(C)c4cccnc4C)cc3CCC[C@H]2C1 [Example 89] — what was its IC50? 100 to 1000 nM

Sample CC[C@@]1(O)CC[C@@]2(Cc3ccccc3)c3ccc(C(=O)Nc4ccncc4C)cc3CCC[C@H]2C1 [Example 70] — what was its IC50? < 100 nM

Sample CC[C@@]1(O)CC[C@@]2(Cc3ccccc3)c3ccc(C(=O)Nc4cnccc4C)cc3CCC[C@H]2C1 [Example 71] — what was its IC50? < 100 nM

###

- tested_target: Glucocorticoid Receptor (GR) (Homo sapiens, UniProt P04150)
- Sequence (P04150 1-777): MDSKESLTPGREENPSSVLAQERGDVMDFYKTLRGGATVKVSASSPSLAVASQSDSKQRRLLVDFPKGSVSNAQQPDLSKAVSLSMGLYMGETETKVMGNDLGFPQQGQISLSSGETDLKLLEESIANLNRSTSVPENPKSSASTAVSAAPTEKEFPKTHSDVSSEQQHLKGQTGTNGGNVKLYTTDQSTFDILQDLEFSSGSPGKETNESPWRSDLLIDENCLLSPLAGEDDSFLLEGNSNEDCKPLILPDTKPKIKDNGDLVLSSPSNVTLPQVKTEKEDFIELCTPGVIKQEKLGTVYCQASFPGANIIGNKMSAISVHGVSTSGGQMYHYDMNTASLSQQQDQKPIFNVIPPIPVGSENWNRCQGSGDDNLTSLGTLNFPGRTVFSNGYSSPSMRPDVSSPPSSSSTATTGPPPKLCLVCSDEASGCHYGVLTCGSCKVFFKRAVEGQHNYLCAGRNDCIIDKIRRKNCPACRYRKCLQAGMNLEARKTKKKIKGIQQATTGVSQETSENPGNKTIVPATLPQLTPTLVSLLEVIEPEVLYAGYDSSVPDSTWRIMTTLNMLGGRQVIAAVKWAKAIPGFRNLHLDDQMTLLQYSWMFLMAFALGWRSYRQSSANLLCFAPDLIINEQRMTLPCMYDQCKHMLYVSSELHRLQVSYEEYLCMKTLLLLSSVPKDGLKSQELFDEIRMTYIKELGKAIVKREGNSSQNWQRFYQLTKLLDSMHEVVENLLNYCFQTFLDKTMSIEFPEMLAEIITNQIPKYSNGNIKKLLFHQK
pIC50: −log10 of the molar value.
recorded_metric: pIC50

Here's what some known entries look like.
compound	pIC50
CC[C@]1(O)CC[C@]2(CC)c3ccc(C(=O)Nc4cccnc4C)cc3COC[C@@H]2C1	< 5.00
CC[C@@]12CC[C@](O)(CCC(F)(F)F)C[C@@H]1CCCc1cc(C(=O)Nc3cccnc3C)ccc12.CC[C@]12CC[C@@](O)(CCC(F)(F)F)C[C@H]1CCCc1cc(C(=O)Nc3cccnc3C)ccc12	> 7.00

Then there is this compound:
Sample CCC[C@@]1(O)CC[C@@]2(CC)c3ccc(-c4nc5ccccc5[nH]4)cc3CCC[C@H]2C1 (single isomer, unassigned) — what was its pIC50? 5.00 to 6.00
